Target: UniProtKB Q9UHD2
pIC50: −log10 of the molar value.
Provide the reported pIC50 of each item.

- molecule: "O=C(NCCCn1ccc2cnc(Nc3cccnc3)nc21)C1CCC1"
  targetSystem: "UniProtKB Q9UHD2"
  reading: "> 7.00"
- molecule: "CC(=O)Nc1cccc(Nc2ncc3ccn(CCCNC(=O)C4CCCC4)c3n2)c1"
  targetSystem: "UniProtKB Q9UHD2"
  reading: "> 7.00"

// each listed compound needs a value for pIC50
1. O=C(NCCCn1ccc2cnc(Nc3ccc(N4CCOCC4)nc3)nc21)c1cncs1
2. O=C(NCCCn1ccc2cnc(Nc3ccc(C(=O)N4CCOCC4)cc3)nc21)C1CCC1
3. O=C(NCCCn1cc(Cl)c2cnc(Nc3ccc(N4CCOCC4)nc3)nc21)C1CCC1
4. N#Cc1cn(CCCNC(=O)C2CCC2)c2nc(Nc3cccc(F)c3)ncc12
5. CC(C)CC(=O)NCCCn1ccc2cnc(Nc3ccc(N4CCOCC4)nc3)nc21
6. O=C(NCCCn1ccc2cnc(Nc3ccc(N4CCCC4=O)cc3)nc21)C1CCC1
7. O=C(NCCCn1ccc2cnc(Nc3ccc(N4CCOCC4)nc3)nc21)C1CCCCC1

["6.00 to 7.00", "> 7.00", "> 7.00", "6.00 to 7.00", "6.00 to 7.00", "> 7.00", "6.00 to 7.00"]

* * *

Target: TBK1 (Homo sapiens)
Sequence (Q9UHD2 1-729): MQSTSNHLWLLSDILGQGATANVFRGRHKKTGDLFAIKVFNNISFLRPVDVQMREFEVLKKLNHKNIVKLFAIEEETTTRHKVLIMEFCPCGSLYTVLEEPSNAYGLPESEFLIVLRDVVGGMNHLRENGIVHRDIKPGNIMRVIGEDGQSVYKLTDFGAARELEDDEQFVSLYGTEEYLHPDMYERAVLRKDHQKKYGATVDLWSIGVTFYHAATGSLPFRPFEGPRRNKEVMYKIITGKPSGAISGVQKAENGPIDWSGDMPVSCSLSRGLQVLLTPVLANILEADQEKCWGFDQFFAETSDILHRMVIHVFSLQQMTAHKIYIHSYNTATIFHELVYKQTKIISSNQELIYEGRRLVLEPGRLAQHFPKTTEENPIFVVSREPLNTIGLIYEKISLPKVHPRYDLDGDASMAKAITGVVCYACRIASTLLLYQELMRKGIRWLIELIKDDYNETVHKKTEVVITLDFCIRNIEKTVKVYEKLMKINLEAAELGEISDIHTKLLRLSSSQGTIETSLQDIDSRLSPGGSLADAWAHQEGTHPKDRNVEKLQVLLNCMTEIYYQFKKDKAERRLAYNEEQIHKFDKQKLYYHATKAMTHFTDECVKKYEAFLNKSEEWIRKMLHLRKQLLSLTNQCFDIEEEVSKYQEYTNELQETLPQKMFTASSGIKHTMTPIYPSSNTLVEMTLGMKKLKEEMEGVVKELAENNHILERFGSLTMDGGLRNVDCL
assayMetric: IC50

- compound: "Cn1ncc2cc(Nc3ncc4ccn(CCCNC(=O)C5CCC5)c4n3)cnc21 [Example 44]"
  reading: "< 0.1 µM"
- compound: "O=C(NCCCn1ccc2cnc(Nc3ccc4[nH]ncc4c3)nc21)C1CCC1 [Example 40]"
  reading: "< 0.1 µM"
- compound: "O=C(NCCCn1ccc2cnc(Nc3cccnc3)nc21)c1cccs1 [Example 12]"
  reading: "0.1 to 1 µM"
- compound: "O=C(NCCCn1cc(Cl)c2cnc(Nc3cccc(F)c3)nc21)C1CCC1 [Example 34]"
  reading: "< 0.1 µM"
- compound: "O=C(NCCCn1ccc2cnc(Nc3ccc4nccn4c3)nc21)C1CCC1 [Example 45]"
  reading: "< 0.1 µM"

// each listed compound needs a value for IC50
1. O=C(NCCCn1ccc2cnc(Nc3ccc4ncccc4c3)nc21)C1CCC1 [Example 50]
2. O=C(NCCCn1ccc2cnc(Nc3cnn(CCN4CCOCC4)c3)nc21)C1CCC1 [Example 9]
3. O=C(NCCCn1ccc2cnc(Nc3cccc(CN4CCOCC4)c3)nc21)C1CCC1 [Example 52]
4. CN1CCc2ccc(Nc3ncc4ccn(CCCNC(=O)C5CCC5)c4n3)cc2C1 [Example 53]
5. O=C(NCCCn1ccc2cnc(Nc3cccc(F)c3)nc21)C1CCCC1 [Example 32]

< 0.1 µM
0.1 to 1 µM
< 0.1 µM
< 0.1 µM
0.1 to 1 µM
